Cited source for all entries: the supplement of paper PMC10567573

B1: FAM50A (parent)
chain: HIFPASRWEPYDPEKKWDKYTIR

# Variants of: B1
# experimental.protocol: protein stability index of a GFP-peptide fusion (GPS, HEK-293T) (PSI 1-6); higher = more stable;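 note: lentivirally expressed fusions sorted by FACS into six bins by GFP to DsRed ratio, PSI derived from sequencing read proportions per bin multiplied by bin number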
# protocol.conditions: c terminus: native
test.readout: protein stability index
One number for each entry.

As a guide, the following entries are already answered.
INSERT INTO measurements (sequence_content, measured) VALUES
  ('HIFPASRWEPYDPEKKWDKYHIR [T21H]', 2.2),
  ('HIFPASRWEPYDIEKKWDKYTIR [P13I]', 3.04),
  ('HIFPASRWEPYDPEKKWVKYTIR [D18V]', 2.17),
  ('HIFPASRWEPYDPEKKWDKYTWR [I22W]', 2.06);

For the 6 variants below, give their protein stability index values.
1. HIFPASRWEPYDPEKKSDKYTIR [W17S]
2. NIFPASRWEPYDPEKKWDKYTIR [H1N]
3. HIGPASRWEPYDPEKKWDKYTIR [F3G]
4. HGFPASRWEPYDPEKKWDKYTIR [I2G]
5. HIFPASRWEPYDPEKFWDKYTIR [K16F]
6. HIFPASRWEPYDPEKMWDKYTIR [K16M]

## Result
[3, 2.77, 4.42, 3.14, 3.28, 1.71]

For record HIFPDSRWEPYDPEKKWDKYTIR [A5D] the listed protein stability index is 2.04
